# Test system: S. aureus clinical strain 043SC (MRSA) biofilm
# assay-setup: clinical strain 043SC biofilm, 24 h
No end group written: not given here.
# MBEC annotations
Reply with just the number (in µg/mL).

Reference set (3 entries):
| substance | MBEC / µg/mL |
| --- | --- |
| ILRWPWWPWRRK-NH2 [Omiganan AcO^−] | 16 |
| KRRWPWWPWRLI-NH2 [Retro-omiganan TFA^−] | 16 |
| KRRWPWWPWRLI-NH2 [Retro-omiganan AcO^−] | 32 |

substance ILRWPWWPWRRK-NH2 [Omiganan TFA^−] , MBEC observed: 32

Recorded result, ILRWPWWPWRRK-NH2 [Omiganan Cl^−] , MBEC: 32

Given item KRRWPWWPWRLI-NH2 [Retro-omiganan Cl^−] , the value recorded as its MBEC is 32

* * *

# System: S. aureus clinical strain 060S biofilm
No end group written: not given here.
observation-type: MBIC (µg/mL)
Your answer should be a plain number; it is taken to be in µg/mL.

Consider the worked cases shown below.
| substance | MBIC (µg/mL) |
| --- | --- |
| KRRWPWWPWRLI-NH2 [Retro-omiganan TFA^−] | 1 |
| ILRWPWWPWRRK-NH2 [Omiganan TFA^−] | 2 |
| ILRWPWWPWRRK-NH2 [Omiganan Cl^−] | 2 |

Next:
Looking up ILRWPWWPWRRK-NH2 [Omiganan AcO^−] , I found its MBIC recorded as 1

* * *

# Tested on: biofilm of reference and clinical strains of staphylococci (S. aureus)
# assay-setup: average over 14 strains; polystyrene 96-well plates; not corrected
No end group written: not given here.
observation-type: mean MBIC (initial values) (µg/mL)
Report the figure in µg/mL without appending any unit label.

The following substances have reported results that may help.
| substance | mean MBIC (initial values) / µg/mL |
| --- | --- |
| ILRWPWWPWRRK-NH2 [Omiganan AcO^−] | 14.54 |
| ILRWPWWPWRRK-NH2 [Omiganan TFA^−] | 17.54 |
| KRRWPWWPWRLI-NH2 [Retro-omiganan TFA^−] | 11.82 |

// below: mean MBIC (initial values) requested for another substance
Memo: ILRWPWWPWRRK-NH2 [Omiganan Cl^−] , reported mean MBIC (initial values): 17.46

* * *

# assay-protocol: Hemolysis assay
# Format: cell-based
# assay-setup: human, human red blood cells (RBCs), 64 μg/mL (lowest concentration causing hemolysis > 10%); read-out: degree of hemolysis
No end group written: not given here.
observation-type: hemolysis at 60 min, 64 μg/mL (%)
Please give a number only; it is taken to be in %.

Lab book: hemolysis at 60 min, 64 μg/mL of KRRWPWWPWRLI-NH2 [Retro-omiganan Cl^−] noted as 16

* * *

# System: S. aureus ATCC 25923
# assay-protocol: microbe, parasite or virus in culture
# assay-setup: Staphylococcus aureus, ATCC25923, 0 h
observation-type: MIC

| molecular-string | MIC |
| --- | --- |
| CCC[C@@H]1C[C@@H](C(=O)N[C@@H]([C@H]2O[C@H](SC)[C@H](O)[C@@H](O)[C@H]2O)[C@@H](C)O)N(C)C1 | 1 mg/L |

CC1(C)S[C@@H]2[C@H](NC(=O)[C@H](N)c3ccccc3)C(=O)N2[C@H]1C(=O)O has a reported MIC of 0.5 mg/L

Entry CC(=O)O[C@H]1C[C@@]2(C)[C@@H](C[C@@H](O)[C@H]3[C@@]4(C)CC[C@@H](O)[C@@H](C)[C@@H]4CC[C@@]32C)/C1=C(\CCC=C(C)C)C(=O)O ; MIC = ≤ 0.25 mg/L

Recorded MIC (compound CC[C@H]1OC(=O)[C@H](C)[C@@H](O[C@H]2C[C@@](C)(OC)[C@@H](O)[C@H](C)O2)[C@H](C)[C@@H](O[C@@H]2O[C@H](C)C[C@H](N(C)C)[C@H]2O)[C@](C)(O)C[C@@H](C)C(=O)[C@H](C)[C@@H](O)[C@]1(C)O ): ≤ 0.25 mg/L

The reported MIC of the compound C/C(=C\C(=O)OCCCCCCCCC(=O)O)C[C@@H]1OC[C@H](C[C@@H]2O[C@H]2[C@@H](C)[C@H](C)O)[C@@H](O)[C@H]1O was ≤ 0.25 mg/L

Input CC(=O)NC[C@H]1CN(c2ccc(N3CCOCC3)c(F)c2)C(=O)O1 . Output MIC: 1 mg/L
